Tested on: epinephrine-increased blood-pressure (anti-α effect)
Test: Antiadrenergic effect: anti-α effect (reduction of epinephrine-increased blood-pressure); note: key: +: for a <50%-reduction of the increase in pressure or cardiac frequency; ++: for a ≥50%-reduction of the increase in pressure or cardiac frequency; +++: for a subtotal reduction of the increase in pressure or cardiac frequency
Type: in vivo
Conditions: dose 5 mg/kg i.v., dog
recorded_metric: Anti-α effect

CCCCc1cc2ccccn2c1C(=O)c1ccc(OCCCN(CCC)CCC)c(Br)c1 [H/Br/H/n-C4H9/n-C3H7/3]
+++
CCCCN(CCCC)CCCOc1ccc(C(=O)c2c(CC)cc3ccccn23)cc1 [Butoprozine, reference compound]
+++
CCCCc1cc2ccccn2c1C(=O)c1ccc(OCCCN(CCCC)CCCC)c(Br)c1 [H/Br/H/n-C4H9/n-C4H9/3]
+++
CCCN(CCC)CCCOc1ccc(C(=O)c2c(-c3ccccc3)c(C)c3ccccn23)cc1 [CH3/H/H/drawing 48/n-C3H7/3]
+++
CCCCN(CCCC)CCCOc1ccc(C(=O)c2c(-c3ccccc3)c(Cl)c3ccccn23)cc1 [Cl/H/H/drawing 36/n-C4H9/3]
+++

// below: Anti-α effect requested for another compound
If you can, please state the reported Anti-α effect value of CCCCN(CCCC)CCCOc1ccc(C(=O)c2c(C)c(Br)c3ccccn23)cc1Br [Br/Br/H/CH3/n-C4H9/3] . +++

---

Experiment: Acute toxicity by intravenous route to rats
Type: in vivo
Details: rat, in vivo, oxalate acid form except those marked (hydrochloride)
Experimental: Acute toxicity tests were carried out on rats and mice. The following results were registered in comparison with butoprozine. The compounds of the invention were used in oxalate acid form except those marked (x) which were tested in hydrochloride form.
recorded_metric: LD50

CCCCN(CCCC)CCCOc1c(Cl)cc(C(=O)c2c(C(C)C)cc3ccccn23)cc1Cl
> 100 mg/kg
CCCCc1cc2ccccn2c1C(=O)c1ccc(OCCCN(CCCC)CCCC)c(Cl)c1.Cl
> 50 mg/kg
CCCCN(CCCC)CCCOc1ccc(C(=O)c2c(-c3ccccc3)c(Br)c3ccccn23)cc1Cl.Cl [(*)Br/Cl/H/drawing 49/n-C4H9/3]
> 100 mg/kg

If you can, please state the reported LD50 value of CCCCN(CCCC)CCCOc1ccc(C(=O)c2c(-c3ccc(Cl)cc3)c(Br)c3ccccn23)cc1Cl [Br/Cl/H/drawing 50/n-C4H9/3] . > 100 mg/kg
